Where do the numbers come from? From PubChem BioAssay (NCI).

Tested on: UACC-257 melanoma
test: NCI-60 one-dose screen, 48 h
settings: 10 µM unless noted
This is part of a sample that, as a whole, favours compounds with a hit. Of some 83,000 tested, about 20% had one in any assay. Calls of active or inactive are those of the source. How the source made its calls: active means growth percent below 10; inactive means the rest.
Answer with one of the outcomes 1 for active, 0 for inactive

compound	group label
c1ccc2sc(SCCCn3ccnc3)nc2c1	0
C[C@H](CCC(=O)O)[C@H]1CC[C@H]2[C@@H]3CC[C@@H]4/C(=C\c5ccco5)C(=O)/C(=C\c5ccco5)C[C@]4(C)[C@H]3CC[C@]12C	0
CCOC(=O)/C=C/c1ccc(C(=O)OCC)[nH]1	0
COc1cnc2c(c1)C(=O)c1c-2n(CCCN2CCNCC2)c(=O)c2cc([N+](=O)[O-])ccc12	0
Cc1cc(Cl)ccc1Nc1nc(C(F)(F)F)ccc1C(=O)N/N=C/c1ccc(F)cc1	1

[Q] Call for entry `Cn1c(=O)c2c(ncn2CC[N+](C)(C)C)n(C)c1=O` :
[A] 0

[Q] Call for entry `O=C(CCN1CCOCC1)Nc1ccc(Cn2nnc3c2C(=O)c2nnn(Cc4ccc(NC(=O)CCN5CCOCC5)cc4)c2C3=O)cc1` :
[A] 1

[Q] Call for entry `O=[N+]([O-])c1cccc(-c2nc3sccn3c2-c2ccnc(NCCCNS(=O)(=O)c3cccc(F)c3)n2)c1` :
[A] 1

* * *

Tested on: OVCAR-4 ovarian
test: NCI-60 one-dose screen, 48 h
settings: 10 µM unless noted
Description: Growth inhibition of the OVCAR-4 human tumor cell line is measured as a screen for anti-cancer activity. Cells are grown in 96 well plates and exposed to the test compound for 48 hours. Compounds are tested at a single concentration, which is 10^-5 M for most compounds. The reported endpoint is percent growth (GI% or GIPRCNT), where numbers from 0 - 100% represent growth inhibition, and numbers from -100% - 0 represent cell death. For example, a value of 40 represents 60% growth inhibition. […]
Compounds without any hit were thinned out: in the full panel of roughly 83,000, 20% have a hit. Active and inactive are the calls of the source. Rule for the calls: active = growth percent below 10; inactive = the rest.
Answer with one of the outcomes active, inactive

[Q] Call for entry `Nc1cccc(-c2nc3sccn3c2-c2ccnc(NCCCNS(=O)(=O)c3ccc(C(F)(F)F)cc3)n2)c1` :
[A] active

[Q] Call for entry `CN1CCN(Cc2ccc(NC(=O)c3[nH]ncc3Nc3ncnc4[nH]ccc34)cc2)CC1` :
[A] active

[Q] Call for entry `C[C@@H]1CC[C@@H]2[C@@H]1[C@H](OC(=O)/C=C/c1ccccc1)[C@]1(C3CCCCC3)C[C@@H](OC(=O)CO)[C@@]2(C)O1` :
[A] inactive

* * *

Tested on: HCT-15 colon
test: NCI-60 one-dose screen, 48 h (100 = growth as untreated, 0 = no growth, -100 = all killed)
settings: 10 µM unless noted
The panel holds about 83,000 compounds, 20% with a hit somewhere; the sample as a whole holds those more often.
growth vs 20%: less than gives class 1; not less than gives class 0.

compound	group label
CCN(CC)CCC(=O)c1ccc(OC)c2ccccc12	class 0
Nc1nc2c(c3ncccc13)C(c1ccc(Cl)c(Cl)c1)Cc1ncccc1-2 (stereo not given)	class 1
C[C@@]1(N2C(=O)OC[C@@H]2c2ccccc2)C(=O)N([C@H](CC(=O)N2CCC(N3CCCCC3)CC2)C(=O)NCc2cccc(C(F)(F)F)c2)[C@@H]1/C=C/c1ccccc1	class 1
CSc1[nH]c2ncnc(N)c2c1C#N	class 0

Below: the item to evaluate.
[Q] Check if growth falls below 20% for `O=C1c2ccccc2-c2nccc3cc(Cl)nc1c23` .
[A] class 1
